Target: human thrombin (HT) (Homo sapiens (human), UniProt P00734;P00734 328-363;364-622)
Assay: nanopore single-molecule titration
PROPERTY NAME: pKd
pKd here: minus log base 10 of the concentration, concentration in moles per litre.

(Q) Request the reported pKd associated with GGTTGGTGTGGATGG (structured_DNA) [TBA-T12A]
(A) 8.15
